Values compiled from patent US12018066.

- Target or system: SARS-CoV-2 spike protein receptor binding domain (RBD2) (SARS-CoV-2, UniProt P0DTC2 319-537)
- Protocol text: SPR sandwich binning, ligand E08
Parameter: normalized analyte binding to RBD2 held by the immobilized ligand
// response body must contain only the number

Q: Could you tell me which normalized analyte binding to RBD2 held by the immobilized ligand is on file for E01 IgG1 (antibody, V domains shown, also called E1) VH: QVQLQQWGAGLLKPSETLSLKCAVYGGSFSGYYWGWIRQSTGKGLEWIGEINRSGSTNYNPSLKSRVTISVDTSKNQFSLKLSSVTAADTAVYYCARGGARYYYGSGSYRSTPRPYYFDYWGQGTLVTVSS VL: SYELTQPPSVSVAPGETARITCGGDNIGRRHVHWYQQKPGQAPVLVIYDDSDRPSGIPDRFSGSNSGNTATLTIGRVEAGDEADYYCQVWGSSNDPHVFGTGTKLTVL ?
A: 2.33
